# test target: T1, Anti-CD28 scFv (VH-linker 1-VL) (biotinylated (site not stated))
# T1 construct: biotinylated and captured on neutravidin coated plates in the phage ELISA
# T1 sequence (scFv, as listed by the source): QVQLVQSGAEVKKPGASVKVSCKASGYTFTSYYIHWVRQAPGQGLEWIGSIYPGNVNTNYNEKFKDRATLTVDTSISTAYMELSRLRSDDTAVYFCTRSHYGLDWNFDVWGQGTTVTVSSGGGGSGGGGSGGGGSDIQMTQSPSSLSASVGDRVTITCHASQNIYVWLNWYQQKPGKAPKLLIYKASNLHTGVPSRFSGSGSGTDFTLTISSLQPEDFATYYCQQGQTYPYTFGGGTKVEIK
# method: phage binding ELISA on captured biotinylated anti-CD28 scFv;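 note: crude clonal phage supernatants applied to the wells, bound phage read out with an HRP-conjugated anti-M13 antibody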
measurement type: CD28 scFv signal
Note: the reply should be a number with no unit written.

Example entries and their recorded answers appear below.
binder	test result
MDWCPRHLWHACFS [Phage-346]	1.83
MDWCPRILWHECFS [Phage-362]	1.39

Please give the measured CD28 scFv signal for this binder: MDWCPRNLWAECFS [Phage-379]
0.538
